Form field: log10(IC50) (one value per entry).
# test system: Adenosine receptor A1 (Rattus norvegicus, UniProt P25099)
# Sequence (P25099 whole entry): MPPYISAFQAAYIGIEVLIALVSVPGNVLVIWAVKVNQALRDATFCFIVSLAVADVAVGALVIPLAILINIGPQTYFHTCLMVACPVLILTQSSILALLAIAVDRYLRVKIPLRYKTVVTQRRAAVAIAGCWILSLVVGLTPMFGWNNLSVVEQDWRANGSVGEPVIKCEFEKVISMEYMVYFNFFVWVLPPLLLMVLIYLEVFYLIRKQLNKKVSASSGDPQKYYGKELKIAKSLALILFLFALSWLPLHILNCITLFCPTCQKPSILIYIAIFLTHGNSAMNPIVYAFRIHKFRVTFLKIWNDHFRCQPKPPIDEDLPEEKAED
Transform log10 | Measure IC50 | Unit nM

{"compound": "CCCn1c(=O)c2[nH]c(-c3ccc(S(=O)(=O)NCCCN(C)C)cc3)nc2n(CCC)c1=O", "test system": "Adenosine receptor A1 (Rattus norvegicus, UniProt P25099)", "value observed": 0.91}
{"compound": "CCn1c(=O)c2nc(-c3ccc(S(=O)(=O)N4CCN(C)CC4)cc3)[nH]c2n(CC)c1=O", "test system": "Adenosine receptor A1 (Rattus norvegicus, UniProt P25099)", "value observed": 2.28}
{"compound": "C=CCn1c(=O)c2nc(-c3ccc(S(=O)(=O)O)cc3)[nH]c2n(CC=C)c1=O", "test system": "Adenosine receptor A1 (Rattus norvegicus, UniProt P25099)", "value observed": 3.87}
{"compound": "CCCn1c(=O)c2nc(-c3ccccc3N)[nH]c2n(CCC)c1=O", "test system": "Adenosine receptor A1 (Rattus norvegicus, UniProt P25099)", "value observed": 1.61}
{"compound": "CCn1c(=O)c2[nH]c(-c3ccc(S(=O)(=O)NCCCN(C)C)cc3)nc2n(CC)c1=O", "test system": "Adenosine receptor A1 (Rattus norvegicus, UniProt P25099)", "value observed": 1.85}

Prompt line: # query: log10(IC50) | item CCn1c(=O)c2nc(-c3ccc(S(=O)(=O)NCC(C)O)cc3)[nH]c2n(CC)c1=O (stereo unspecified) | system: Adenosine receptor A1 (Rattus norvegicus, UniProt P25099)
Response line: 2.14

Prompt line: # query: log10(IC50) | item "CCn1c(=O)c2[nH]c(-c3ccc(S(=O)(=O)N4CCOCC4)cc3)nc2n(CC)c1=O" | system: Adenosine receptor A1 (Rattus norvegicus, UniProt P25099)
Response line: 2.49

Prompt line: # query: log10(IC50) | item "CCn1c(=O)c2nc(-c3ccc(S(=O)(=O)NCCN(C)C)cc3)[nH]c2n(CC)c1=O" | system: Adenosine receptor A1 (Rattus norvegicus, UniProt P25099)
Response line: 2.06

Prompt line: # query: log10(IC50) | item "CCCn1c(=O)c2nc(-c3ccc(S(=O)(=O)NCCN(C)C)cc3)[nH]c2n(CCC)c1=O" | system: Adenosine receptor A1 (Rattus norvegicus, UniProt P25099)
Response line: 0.81

Prompt line: # query: log10(IC50) | item "CCn1c(=O)c2[nH]c(-c3ccc(N(C)C)cc3)nc2n(CC)c1=O" | system: Adenosine receptor A1 (Rattus norvegicus, UniProt P25099)
Response line: 2.07

Prompt line: # query: log10(IC50) | item "CCn1c(=O)c2[nH]c(-c3ccc(S(=O)(=O)O)cc3)nc2n(CC)c1=O" | system: Adenosine receptor A1 (Rattus norvegicus, UniProt P25099)
Response line: 3.74

====

# assay: Solubility in 0.1 N HCl
# Format: physicochemical
Classify by measured solubility: TRUE if it is equal to or exceeds 1000 µg/mL, FALSE if it is smaller.

Answered cases to consult:
{"smiles structure": "CCCn1c(=O)c2nc(-c3ccc(S(=O)(=O)NCCN(C)C)cc3)[nH]c2n(CCC)c1=O", "label class": "TRUE"}
{"smiles structure": "CCn1c(=O)c2[nH]c(-c3ccccc3)nc2n(CC)c1=O", "label class": "FALSE"}
{"smiles structure": "CCCn1c(=O)c2nc(-c3ccccc3N)[nH]c2n(CCC)c1=O", "label class": "FALSE"}
{"smiles structure": "CCn1c(=O)c2nc(-c3ccc(S(=O)(=O)NCCN(C)C)cc3)[nH]c2n(CC)c1=O", "label class": "TRUE"}
{"smiles structure": "CCCn1c(=O)c2[nH]c(-c3ccc(Cl)cc3N)nc2n(CCC)c1=O", "label class": "FALSE"}

Prompt line: hey, is solubility for this one >= 1000 µg/mL? "CCn1c(=O)c2[nH]c(-c3ccc(S(=O)(=O)O)cc3)nc2n(CC)c1=O"
Response line: TRUE

Prompt line: hey, is solubility for this one >= 1000 µg/mL? "CCCn1c(=O)c2[nH]c(-c3ccc(S(=O)(=O)O)cc3)nc2n(CCC)c1=O"
Response line: TRUE

====

# test system: Adenosine receptor A1 (Bos taurus, UniProt P28190)
# Sequence (P28190 whole entry): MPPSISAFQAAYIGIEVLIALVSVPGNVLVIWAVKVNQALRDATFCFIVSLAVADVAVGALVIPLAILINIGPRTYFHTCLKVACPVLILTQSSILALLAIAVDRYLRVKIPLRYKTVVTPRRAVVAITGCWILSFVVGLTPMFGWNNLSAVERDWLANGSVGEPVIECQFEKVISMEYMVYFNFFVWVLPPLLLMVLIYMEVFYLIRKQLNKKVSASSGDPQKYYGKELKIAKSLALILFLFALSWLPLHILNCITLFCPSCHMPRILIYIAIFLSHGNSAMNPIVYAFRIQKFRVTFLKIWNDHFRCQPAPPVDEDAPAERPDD
measured attribute: pIC50
Friendly reminder that pIC50 comes from taking -log10 of the concentration in mol/L.

{"molecule": "CCn1c(=O)c2[nH]c(-c3ccc(N(C)C)cc3)nc2n(CC)c1=O", "test system": "Adenosine receptor A1 (Bos taurus, UniProt P28190)", "pIC50": 8.48}

Prompt line: Sample "CCCn1c(=O)c2[nH]c(-c3ccccc3)nc2n(CCC)c1=O" — what was its pIC50?
Response line: 9.15

====

# assay: Solubility in 0.1 M phosphate buffer at pH 7.4
# Format: physicochemical
# condition label: phosphate buffer, read-out: Solubility
Form field: solubility (one value per entry).

{"smiles structure": "CCCn1c(=O)c2[nH]c(-c3ccc(S(=O)(=O)O)cc3)nc2n(CCC)c1=O", "solubility": "> 24 mg/mL"}

Prompt line: Sample "CCn1c(=O)c2nc(-c3ccc(S(=O)(=O)NCCN(C)C)cc3)[nH]c2n(CC)c1=O" — what was its solubility?
Response line: 0.11 mg/mL

Prompt line: Sample "CCn1c(=O)c2[nH]c(-c3ccc(S(=O)(=O)O)cc3)nc2n(CC)c1=O" — what was its solubility?
Response line: > 57 mg/mL

Prompt line: Sample "CCCn1c(=O)c2nc(-c3ccccc3N)[nH]c2n(CCC)c1=O" — what was its solubility?
Response line: < 0.001 mg/mL

Prompt line: Sample "CCCn1c(=O)c2[nH]c(-c3ccc(Cl)cc3N)nc2n(CCC)c1=O" — what was its solubility?
Response line: < 0.0001 mg/mL

====

Sequence of the target: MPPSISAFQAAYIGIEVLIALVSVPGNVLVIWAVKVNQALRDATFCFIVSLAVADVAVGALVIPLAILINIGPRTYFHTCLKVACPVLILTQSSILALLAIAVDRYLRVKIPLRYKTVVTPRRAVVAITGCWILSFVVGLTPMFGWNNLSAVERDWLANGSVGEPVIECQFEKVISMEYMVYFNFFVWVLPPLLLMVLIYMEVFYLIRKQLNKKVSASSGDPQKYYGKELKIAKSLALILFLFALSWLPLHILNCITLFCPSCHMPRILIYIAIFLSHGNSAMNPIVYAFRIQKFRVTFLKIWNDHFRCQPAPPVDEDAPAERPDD
Classification by IC50 | ranges: range A (below 2 nM), range B (2 nM to below 6 nM), range C (6 nM or more)

Answered cases to consult:
{"compound": "CCn1c(=O)c2[nH]c(-c3ccc(S(N)(=O)=O)cc3)nc2n(CC)c1=O", "label class": "range A"}
{"compound": "Cc1ccccc1-c1nc2c([nH]1)c(=O)n(C)c(=O)n2C", "label class": "range C"}
{"compound": "Cn1c(=O)c2[nH]c(-c3ccc(N)cc3)nc2n(C)c1=O", "label class": "range A"}

Prompt line: Lab log: "CCCn1c(=O)c2nc(-c3ccc(N)cc3N)[nH]c2n(CCC)c1=O" — assign IC50 category
Response line: range A

Prompt line: Lab log: "CCCn1c(=O)c2nc(-c3ccc(S(=O)(=O)NCCCC(=O)OCC)cc3)[nH]c2n(CCC)c1=O" — assign IC50 category
Response line: range A

Prompt line: Lab log: "CCn1c(=O)c2nc(-c3cccc(S(=O)(=O)NCCN(C)C)c3)[nH]c2n(CC)c1=O" — assign IC50 category
Response line: range C

Prompt line: Lab log: "CCn1c(=O)c2[nH]c(-c3ccc(S(=O)(=O)NCCCN(C)C)cc3)nc2n(CC)c1=O" — assign IC50 category
Response line: range A

====

Target protein (sequence): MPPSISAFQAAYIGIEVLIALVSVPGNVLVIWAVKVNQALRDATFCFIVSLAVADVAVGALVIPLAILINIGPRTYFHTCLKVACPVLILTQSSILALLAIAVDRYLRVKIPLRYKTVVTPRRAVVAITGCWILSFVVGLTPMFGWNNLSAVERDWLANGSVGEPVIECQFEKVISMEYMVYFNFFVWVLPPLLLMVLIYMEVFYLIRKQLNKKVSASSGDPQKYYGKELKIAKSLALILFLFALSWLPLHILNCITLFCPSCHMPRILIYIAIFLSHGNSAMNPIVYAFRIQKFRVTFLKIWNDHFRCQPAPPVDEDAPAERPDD
measured attribute: log10 IC50 (log10 of the value in nM)
Transform log10 | Measure IC50 | Unit nM

Prompt line: Sample CCn1c(=O)c2nc(-c3ccc(S(=O)(=O)NCC(C)O)cc3)[nH]c2n(CC)c1=O (configuration not stated) — what was its log10 IC50?
Response line: 0.62

Prompt line: Sample "Cn1c(=O)c2[nH]c(-c3ccc4ccccc4c3)nc2n(C)c1=O" — what was its log10 IC50?
Response line: 0.74

Prompt line: Sample "CCCn1c(=O)c2[nH]c(-c3ccc(S(=O)(=O)NCCCN(C)C)cc3)nc2n(CCC)c1=O" — what was its log10 IC50?
Response line: -1.10
